System: MOLM-13
Experiment: Cell antiproliferative activity assay (CellTiter-Glo), MOLM-13
Format: cell-based
Details: Homo sapiens; MOLM-13, 72 hs; read-out: Cell Growth IC50 (nM) MOLM-13
endpoint.label: IC50 (nM)

C#CC(=O)N1CCC(C2CCNn3c2nc(-c2ccc(Oc4ccccc4)cc2)c3C(N)=O)CC1 (stereo not drawn); 1100

I = NC(=O)c1c(-c2ccc(Oc3ccccc3)cc2)nc2n1NCCC2C1CCN(C(=O)/C=C/C(F)(F)F)CC1 (single isomer, unassigned) [10a (peak 1)]
II = NC(=O)c1c(-c2ccc(Oc3ccccc3)cc2)nc2n1NCCC2C1CN(C(=O)/C=C/C(F)(F)F)C1 (stereo not drawn)
### Prompt Kindly identify which of I and II has the larger recorded IC50 value. Give the label of your selection.
### Response I
